- assay_comment: in vitro
- protocol_conditions: dog, MDCK
- Description: Efflux ratio of permeability in MDCK1 cells
Use 1 as the dividing line for efflux ratio, with the line itself on the Met side and lower values as Not met.

Below are worked cases with known answers.
>  <compound_string>
COCCCN1CCN(c2ccc(Nc3cc(-c4ccnc(N5CCn6c(cc7c6CC(C)(C)C7)C5=O)c4CO)cn(C)c3=O)nc2)CC1

>  <class_label>
Met

$$$$
>  <compound_string>
Cn1cc(-c2ccnc(N3CCn4c(cc5c4CC(C)(C)C5)C3=O)c2CO)cc(Nc2ccc(C3CN(C4COC4)C3)cn2)c1=O

>  <class_label>
Not met

$$$$
>  <compound_string>
Cn1cc(-c2ccnc(N3CCn4c(cc5c4CC(C)(C)C5)C3=O)c2CO)cc(Nc2ccc(N3CCN(CCC(F)(F)F)CC3)cn2)c1=O

>  <class_label>
Not met

$$$$
>  <compound_string>
CC[C@H]1CN(C2COC2)CCN1c1ccc(Nc2cc(-c3ccnc(N4CCn5c(cc6c5CC(C)(C)C6)C4=O)c3CO)cn(C)c2=O)nc1

>  <class_label>
Not met

$$$$
>  <compound_string>
C[C@H]1CN(C2COC2)CCN1c1cnc(Nc2cc(-c3ccnc(N4CCn5c(cc6c5CC(C)(C)C6)C4=O)c3CO)cn(C)c2=O)cn1

>  <class_label>
Met

$$$$
>  <compound_string>
C[C@H]1CN(C2COC2)CCN1c1ccc(Nc2cc(-c3ccnc(N4CCn5c(cc6c5CC(C)(C)C6)C4=O)c3CO)nn(C)c2=O)nc1

>  <class_label>
Not met

$$$$
>  <compound_string>
CC(=O)N1CCN(c2ccc(Nc3cc(-c4ccnc(N5CCn6c(cc7c6CC(C)(C)C7)C5=O)c4CO)cn(C)c3=O)nc2)CC1

>  <class_label>
Met

$$$$

Now examine the next entry.
INPUT: Kindly determine if efflux ratio recorded for `C[C@@H]1CN(c2ccc(Nc3cc(-c4ccnc(N5CCn6c(cc7c6CC(C)(C)C7)C5=O)c4CO)cn(C)c3=O)nc2)[C@@H](C)CN1C1COC1` is above or exactly 1.
OUTPUT: Not met

----------
- assay_comment: Clearance in human liver microsomes at 1 uM incubated up to 60 mins by LC-MS/MS method
- Format: ADME, microsome
reported_property: CLhep predicted at 1 µM

>  <compound_string>
C[C@H]1CN(C2COC2)CCN1c1ccc(Nc2cc(-c3ccnc(N4CCn5c(cc6c5CC(C)(C)C6)C4=O)c3CO)nn(C)c2=O)nc1

>  <test_value>
11 mL/min/kg

$$$$
>  <compound_string>
CN1CCN(c2ccc(Nc3cc(-c4cc(F)cc(N5CCn6c(cc7c6CCCC7)C5=O)c4CO)cn(C)c3=O)nc2)CC1

>  <test_value>
15 mL/min/kg

$$$$
>  <compound_string>
C[C@@H]1CN(c2ccc(Nc3cc(-c4ccnc(N5CCn6c(cc7c6CC(C)(C)C7)C5=O)c4CO)cn(C)c3=O)nc2)[C@@H](C)CN1C1COC1

>  <test_value>
12 mL/min/kg

$$$$
>  <compound_string>
C[C@H]1CN(c2ccc(Nc3cc(-c4cc(F)cc(N5CCn6c(cc7c6CCCC7)C5=O)c4CO)cn(C)c3=O)nc2)CCN1C

>  <test_value>
13 mL/min/kg

$$$$
>  <compound_string>
COCCCN1CCN(c2ccc(Nc3cc(-c4ccnc(N5CCn6c(cc7c6CC(C)(C)C7)C5=O)c4CO)cn(C)c3=O)nc2)CC1

>  <test_value>
12 mL/min/kg

$$$$
>  <compound_string>
Cn1cc(-c2cc(F)cc(N3CCn4c(cc5c4CCCC5)C3=O)c2CO)cc(Nc2ccc(N3CCN(C4COC4)CC3)cn2)c1=O

>  <test_value>
12.3 mL/min/kg

$$$$
>  <compound_string>
Cn1cc(-c2ccnc(N3Cc4cc(C(C)(C)C)sc4C3=O)c2CO)cc(Nc2ccc(N3CCN(C4COC4)CC3)cn2)c1=O

>  <test_value>
10 mL/min/kg

$$$$
>  <compound_string>
CC(=O)N1CCN(c2ccc(Nc3cc(-c4ccnc(N5CCn6c(cc7c6CC(C)(C)C7)C5=O)c4CO)cn(C)c3=O)nc2)CC1

>  <test_value>
8.8 mL/min/kg

$$$$
>  <compound_string>
C[C@@H]1CN(C2COC2)CCN1c1ccc(Nc2cc(-c3ccnc(N4CCn5c(cc6c5CC(C)(C)C6)C4=O)c3CO)cn(C)c2=O)nc1

>  <test_value>
15 mL/min/kg

$$$$
>  <compound_string>
CC(=O)N1CC2(C1)CN(c1ccc(Nc3cc(-c4ccnc(N5CCn6c(cc7c6CC(C)(C)C7)C5=O)c4CO)cn(C)c3=O)nc1)C2

>  <test_value>
10 mL/min/kg

$$$$

INPUT: Endpoint output: CLhep predicted at 1 µM of `Cn1cc(-c2ccnc(N3CCc4c(sc5c4CCCC5)C3=O)c2CO)cc(Nc2ccc(N3CCN(C4COC4)CC3)cn2)c1=O` . Value?
OUTPUT: 13 mL/min/kg

INPUT: // returns reported CLhep predicted at 1 µM for input `C[C@@H]1CN(c2ccc(Nc3cc(-c4cc(F)cc(N5CCn6c(cc7c6CCCC7)C5=O)c4CO)cn(C)c3=O)nc2)CCN1C`
OUTPUT: 13 mL/min/kg

INPUT: CLhep predicted at 1 µM for `Cn1cc(-c2ccnc(N3CCc4c(sc5c4CC(C)(C)C5)C3=O)c2CO)cc(Nc2ccc(N3CCN(C4COC4)CC3)cn2)c1=O` ?
OUTPUT: 13.5 mL/min/kg

INPUT: What does the record list as CLhep predicted at 1 µM for `Cn1cc(-c2ccnc(N3CCn4c(cc5c4CC(C)(C)C5)C3=O)c2CO)cc(Nc2ccc(C3CN(C4COC4)C3)cn2)c1=O` ?
OUTPUT: 16 mL/min/kg
